Each entry below carries its reported log10 of solubility kinetic.
- Test Context: buffer; pH 7.4; 200.0 µM
Lab note - solubility kinetic converted to log10 from values in µg/mL.

Example entries and their recorded answers appear below.
>>> recorded_value("CCCNC(=O)COC(=O)c1ccc(N2CCCC2)c([N+](=O)[O-])c1")
1.20
>>> recorded_value("Cc1c(C(=O)Oc2cccc3cccnc23)cccc1[N+](=O)[O-]")
0.90
>>> recorded_value("COc1ccc(CCNC(=S)Nc2ccccc2)cc1")
1.61

Turning now to a further record.
Query: Write down log10 of solubility kinetic measured for item CN(C(=O)c1coc(=O)c2ccccc12)c1ccccc1Cl
Response: 1.65
